Cited source for all entries: patent US20230357398A1

# System tested: T1, Mature human CD3e(1-118)_FLAG-chLys_Avi (human)
# T1 construct: also called human CD3 epsilon antigen
# T1 sequence (chain, as listed by the source limits assumed): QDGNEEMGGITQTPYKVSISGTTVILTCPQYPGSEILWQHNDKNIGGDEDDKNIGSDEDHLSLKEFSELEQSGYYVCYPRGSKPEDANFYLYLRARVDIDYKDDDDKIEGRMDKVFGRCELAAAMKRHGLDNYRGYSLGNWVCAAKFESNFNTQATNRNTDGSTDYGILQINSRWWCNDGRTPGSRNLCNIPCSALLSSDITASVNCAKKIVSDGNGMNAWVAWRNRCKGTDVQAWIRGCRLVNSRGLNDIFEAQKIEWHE
# Assay overview: BLI (Octet HTX); FabCys captured on Fab-specific sensor, CD3e antigen as analyte; 1:1 model
Observed property: Kd (nM)
Answers are plain numbers, in nM.

Below: 2 binders and their reported Kd.
Binder	Value units	Kd
MAB-8_h_FabCys (Fab, V domains shown, Tagless disulfide-bridged human FabCys produced in HEK293 cells; also called MAB-8 Fab-Cys) VH: EVQLVESGGGLVQPGGSLRLSCAASGFTFRSHYMTWVRQAPGKGLEWVANIDYEGTRTYYAESVKGRFTISRDNAKNSLYLQMNSLRAEDTAVYYCARGYSAEFAHRSGLDVWGQGTLVTVSS VL: QSVLTQPPSASGTPGQRVTISCSGSSSNIGSNYVYWYQQLPGTAPKLLIYRNNQRPSGVPDRFSGSKSGTSASLAISGLRSEDEADYYCAAWDRHSHGAVFGGGTKLTVLG	nM	0.3
MAB-16_h_FabCys (Fab, V domains shown, Tagless disulfide-bridged human FabCys produced in HEK293 cells; also called MAB-16 Fab-Cys) VH: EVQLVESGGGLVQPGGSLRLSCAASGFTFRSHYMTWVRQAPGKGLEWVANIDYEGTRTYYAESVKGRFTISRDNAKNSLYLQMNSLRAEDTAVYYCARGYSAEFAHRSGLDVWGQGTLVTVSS VL: QSVLTQPPSASGTPGQRVTISCSGSSSNIGSNYVYWYQQLPGTAPKLLIYRNNQRPSGVPDRFSGSKSGTSASLAISGLRSEDEADYYCAGWDRRLHGAVFGGGTKLTVLG	nM	0.3

Shift focus to the following entry.
Record summary for MAB-13_h_FabCys (Fab, V domains shown, Tagless disulfide-bridged human FabCys produced in HEK293 cells; also called MAB-13 Fab-Cys) VH: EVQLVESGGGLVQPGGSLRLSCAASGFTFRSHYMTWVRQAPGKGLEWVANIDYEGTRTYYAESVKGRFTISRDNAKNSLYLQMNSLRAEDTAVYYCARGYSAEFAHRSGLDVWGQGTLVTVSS VL: QSVLTQPPSASGTPGQRVTISCSGSSSNIGINYVYWYQQLPGTAPKLLIYRNNQRPSGVPDRFSGSKSGTSASLAISGLRSEDEADYYCAAWDRHSHGAVFGGGTKLTVLG : reported Kd = 0.2
